pIC50: −log10 of the molar value.
For reference, pIC50 measured on UniProt:P23743:

Completed entries (count: 2):
- CC[C@@H]1CN(c2cc(=O)[nH]c3cn(CC#N)nc23)[C@@H](C)CN1C(C)c1ccc2nccnc2c1 (single isomer, unassigned) [Compound A177b]: < 5.00
- CC[C@H]1CN(C(C)c2ccc(F)cc2C(F)F)[C@H](CC)CN1c1cc(=O)n(C)c2cn(CC#N)nc12 (single isomer, unassigned) [Compound A172a]: < 5.00

Would you kindly look at the next entry?
Lab note: CC[C@H]1CN(C2CCCc3ccccc32)[C@H](CC)CN1c1cc(=O)n(C)c2cn(CC#N)nc12 (single isomer, unassigned) [Compound A146b] gave pIC50 of < 5.00

Source listed as patent US20240300951A1.
